All values here come from ChEMBL document CHEMBL3259517.

Provide the recorded IC50 for the entries that follow.
target: CDK9/cyclin T1 (Homo sapiens); experiment: Inhibition of CDK9/CycT1 (unknown origin) using TAMRA-Rbtide and ATP as substrate after 1 hr; assay type: protein-complex assay
Sequence (O60563 whole entry): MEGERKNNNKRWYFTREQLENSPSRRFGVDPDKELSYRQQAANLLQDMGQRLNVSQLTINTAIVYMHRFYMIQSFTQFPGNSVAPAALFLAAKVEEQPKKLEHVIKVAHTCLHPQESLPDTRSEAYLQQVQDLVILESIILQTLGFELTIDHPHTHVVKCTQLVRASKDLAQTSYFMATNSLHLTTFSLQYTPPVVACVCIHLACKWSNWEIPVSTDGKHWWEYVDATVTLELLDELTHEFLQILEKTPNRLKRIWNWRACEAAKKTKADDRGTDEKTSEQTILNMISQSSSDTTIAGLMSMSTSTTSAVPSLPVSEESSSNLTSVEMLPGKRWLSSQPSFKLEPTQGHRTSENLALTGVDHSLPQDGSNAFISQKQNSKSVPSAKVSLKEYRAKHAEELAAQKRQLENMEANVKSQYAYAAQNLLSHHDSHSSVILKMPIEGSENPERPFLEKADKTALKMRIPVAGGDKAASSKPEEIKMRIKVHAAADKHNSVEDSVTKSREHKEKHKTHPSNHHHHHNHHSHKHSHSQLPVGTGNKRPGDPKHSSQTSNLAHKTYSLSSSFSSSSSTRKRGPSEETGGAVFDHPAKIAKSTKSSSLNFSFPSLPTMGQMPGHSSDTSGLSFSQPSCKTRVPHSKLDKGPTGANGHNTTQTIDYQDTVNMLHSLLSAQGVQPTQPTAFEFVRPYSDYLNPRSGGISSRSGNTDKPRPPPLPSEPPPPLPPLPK
Sequence (P50750 whole entry): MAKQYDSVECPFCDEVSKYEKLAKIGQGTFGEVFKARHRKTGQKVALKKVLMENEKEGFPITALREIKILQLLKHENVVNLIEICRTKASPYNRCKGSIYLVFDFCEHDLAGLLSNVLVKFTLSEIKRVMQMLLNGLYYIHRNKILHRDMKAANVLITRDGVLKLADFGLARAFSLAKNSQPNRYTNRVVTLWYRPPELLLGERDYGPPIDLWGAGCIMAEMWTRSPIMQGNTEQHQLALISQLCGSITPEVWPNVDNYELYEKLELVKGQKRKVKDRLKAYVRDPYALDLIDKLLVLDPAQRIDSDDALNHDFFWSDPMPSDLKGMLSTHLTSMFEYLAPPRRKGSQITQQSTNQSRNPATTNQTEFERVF
Report the figure in µM without appending any unit label.

Enquiry: Return reported IC50 for target or system CDK9/cyclin T1 (Homo sapiens), item CCOP(=O)(c1ccccc1)c1ccc(Nc2cc(-c3cccc(N)c3)ncn2)cc1 (configuration not stated) .
Return: 6.5

Enquiry: # return IC50 of CCOP(=O)(Oc1cc(Nc2cc(-c3ccccc3OC)ncn2)ccc1C)c1ccccc1 (configuration not stated) (system: CDK9/cyclin T1 (Homo sapiens))
Return: 4.14

Enquiry: Report value: IC50, system: CDK9/cyclin T1 (Homo sapiens), compound: CCCP(=O)(Cc1ccc(Nc2cc(-c3cccc(N)c3)ncn2)cc1)OCC (configuration not stated)
Return: 7.47

Enquiry: State IC50 on CDK9/cyclin T1 (Homo sapiens). Entry: CCOP(=O)(Oc1cccc(Nc2cc(-c3ccccc3OC)ncn2)c1)c1ccccc1 (configuration not stated)
Return: 3.1

Enquiry: Report the value of IC50 obtained on CDK9/cyclin T1 (Homo sapiens) for CCOP(=O)(CC)Cc1cc(Nc2cc(-c3ccccc3OC)ncn2)ccc1C (configuration not stated) .
Return: 0.366

Enquiry: Give the observed IC50 of CCOP(=O)(c1ccccc1)c1ccc(Nc2cc(-c3ccccc3OC)ncn2)cc1 (configuration not stated) for CDK9/cyclin T1 (Homo sapiens).
Return: 0.523

Enquiry: Report IC50 under test system CDK9/cyclin T1 (Homo sapiens) for CCCP(=O)(Cc1cccc(Nc2cc(-c3cccc(OC)c3OC)ncn2)c1)OCC (configuration not stated) .
Return: 2.39
